# credit: patent US5284774A

# measured on: System L (Mus musculus)
# Construct: Murine L1210 Leukemia cells were grown in RPMI 1630 medium; endogenous in cells; host or cells: murine L1210 leukemia cells
# Sequence (Q9Z127 whole entry): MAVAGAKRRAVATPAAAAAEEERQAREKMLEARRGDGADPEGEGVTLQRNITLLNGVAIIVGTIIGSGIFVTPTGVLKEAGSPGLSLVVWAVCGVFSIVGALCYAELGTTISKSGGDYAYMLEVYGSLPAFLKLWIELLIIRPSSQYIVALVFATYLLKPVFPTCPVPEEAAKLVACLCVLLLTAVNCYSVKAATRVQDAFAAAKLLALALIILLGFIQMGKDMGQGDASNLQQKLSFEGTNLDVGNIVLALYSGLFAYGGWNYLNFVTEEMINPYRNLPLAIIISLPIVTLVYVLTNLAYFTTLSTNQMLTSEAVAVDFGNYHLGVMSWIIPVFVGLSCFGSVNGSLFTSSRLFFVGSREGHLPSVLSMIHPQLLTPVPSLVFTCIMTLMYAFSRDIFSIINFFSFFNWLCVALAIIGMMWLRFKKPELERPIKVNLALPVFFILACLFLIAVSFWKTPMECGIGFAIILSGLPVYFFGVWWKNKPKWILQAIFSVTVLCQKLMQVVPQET
# Sequence (P10852 whole entry partner): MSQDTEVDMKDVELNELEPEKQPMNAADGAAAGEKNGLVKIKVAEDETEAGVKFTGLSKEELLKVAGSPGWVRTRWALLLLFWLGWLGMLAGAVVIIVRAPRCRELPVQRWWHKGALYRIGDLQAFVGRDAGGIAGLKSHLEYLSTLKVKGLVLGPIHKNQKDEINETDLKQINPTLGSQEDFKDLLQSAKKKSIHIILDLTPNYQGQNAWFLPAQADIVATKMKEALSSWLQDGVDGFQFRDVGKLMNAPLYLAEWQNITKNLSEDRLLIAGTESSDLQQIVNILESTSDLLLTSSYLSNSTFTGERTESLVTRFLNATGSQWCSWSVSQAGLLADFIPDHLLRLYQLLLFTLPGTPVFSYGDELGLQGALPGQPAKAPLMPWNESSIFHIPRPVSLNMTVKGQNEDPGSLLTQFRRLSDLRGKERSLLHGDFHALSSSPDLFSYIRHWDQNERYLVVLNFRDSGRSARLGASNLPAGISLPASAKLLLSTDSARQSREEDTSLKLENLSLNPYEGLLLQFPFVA
# Assay type: cell-based, murine
# conditions: read-out: Ki, competitive inhibition of BCH transport
property: Ki (nM)
One number for each entry, in nM.

Task: Returns the measured Ki for the input molecule. Input: NC1(C(=O)O)CCc2ccc(N(CCCl)CCCl)cc2C1 (racemic)
Output: 220

---

# Test system: murine CFU-C
# conditions: mouse, bone marrow cfu-c, 0.75 h
property: CC90 (µM)
Answers are plain numbers, in µM.

Task: Returns the measured CC90 for the input compound. Input: NC1(C(=O)O)CCc2ccc(N(CCCl)CCCl)cc2C1 (racemic)
Output: 23.8
